Answer each item with its documented Dmax.
- Assay System: MerTK (Homo sapiens)
- Construct: endogenous in cells; host or cells: Jurkat cells
- Sequence (Q12866 21-999): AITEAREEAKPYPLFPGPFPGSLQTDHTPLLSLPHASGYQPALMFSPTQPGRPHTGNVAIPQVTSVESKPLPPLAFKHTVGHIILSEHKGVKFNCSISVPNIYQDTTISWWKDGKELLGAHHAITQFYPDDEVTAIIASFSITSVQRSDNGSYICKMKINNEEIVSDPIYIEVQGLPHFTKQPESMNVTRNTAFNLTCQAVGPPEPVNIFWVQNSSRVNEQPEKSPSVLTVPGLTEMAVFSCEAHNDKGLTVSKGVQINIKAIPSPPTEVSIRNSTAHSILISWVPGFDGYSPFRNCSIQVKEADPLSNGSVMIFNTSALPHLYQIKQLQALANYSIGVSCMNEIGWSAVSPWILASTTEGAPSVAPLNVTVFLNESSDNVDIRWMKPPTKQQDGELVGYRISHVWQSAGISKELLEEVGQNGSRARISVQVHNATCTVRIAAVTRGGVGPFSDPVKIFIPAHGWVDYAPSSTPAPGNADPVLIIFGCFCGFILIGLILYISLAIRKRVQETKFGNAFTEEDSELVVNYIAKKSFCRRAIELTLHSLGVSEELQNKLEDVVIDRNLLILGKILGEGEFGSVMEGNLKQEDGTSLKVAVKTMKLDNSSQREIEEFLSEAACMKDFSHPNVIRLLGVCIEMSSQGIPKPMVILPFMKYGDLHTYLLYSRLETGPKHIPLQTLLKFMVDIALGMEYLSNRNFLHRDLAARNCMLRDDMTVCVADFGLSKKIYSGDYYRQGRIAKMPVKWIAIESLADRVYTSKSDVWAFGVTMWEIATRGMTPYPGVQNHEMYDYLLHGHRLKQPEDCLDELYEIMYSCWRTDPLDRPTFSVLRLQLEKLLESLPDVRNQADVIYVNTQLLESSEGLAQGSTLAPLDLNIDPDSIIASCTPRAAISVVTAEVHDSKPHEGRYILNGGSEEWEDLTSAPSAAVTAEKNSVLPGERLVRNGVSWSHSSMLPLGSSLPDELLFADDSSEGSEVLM
- Experiment: MerTk degradation in Jurkat cells (Western blot)
- Assay type: cell-based
- Experimental Setup: Jurkat, 4 h, 0.001-1 μM, 4 hour-incubation at 37° C., read-out: Jurkat Max % MerTK Degradation

Form: compound = CCCCNc1ncc2c(n1)n([C@H]1CC[C@H](O)CC1)cc2[C@H]1CC[C@@H](CN2CCN(CCOCCOCCOCCOCCCc3ccc4c(c3)n(C)c(=O)n4[C@H]3CCC(=O)NC3=O)CC2)CC1 [I-89] ; Dmax = > 50%

Value of Dmax reported for the compound Cn1c(=O)n([C@H]2CCC(=O)NC2=O)c2ccc(CCCCN3CCC(N4CCN(Cc5ccc(-c6cn([C@H]7CC[C@H](O)CC7)c7nc(NCCC(F)(F)F)ncc67)cc5)CC4)CC3)cc21 [I-120] is > 50%

Record CCCCNc1ncc2c(-c3ccc(CN4CCN(CCCOCCCc5ccc6c(c5)n(C)c(=O)n6[C@H]5CCC(=O)NC5=O)CC4)cc3)cn([C@H]3CC[C@H](O)CC3)c2n1 [I-69] , field Dmax: > 50%

Consider Cn1c(=O)n([C@H]2CCC(=O)NC2=O)c2ccc(CCCN3CC(N4CCN(Cc5ccc(-c6cn([C@H]7CC[C@H](O)CC7)c7nc(NCCC(F)(F)F)ncc67)cc5)CC4)C3)cc21 [I-116] . Its measured Dmax is > 50%

What the record says about Cc1ncsc1-c1ccc(CNC(=O)[C@@H]2C[C@@H](O)CN2C(=O)[C@@H](NC(=O)CCCCCN2CCN(Cc3ccc(-c4cn([C@H]5CC[C@H](O)CC5)c5nc(NCCC(F)(F)F)ncc45)cc3)CC2)C(C)(C)C)cc1 [I-161] : Dmax is < 20%

Reported Dmax for Cn1c(=O)n(C2CCC(=O)NC2=O)c2ccc(CCCN3CCCC(N4CCN(Cc5ccc(-c6cn([C@H]7CC[C@H](O)CC7)c7nc(NCCC(F)(F)F)ncc67)cc5)CC4)C3)cc21 (stereo partly shown) [I-118] was 20 to 50%

Please fill in: Dmax reported for CCCCNc1ncc2c(-c3ccc(S(=O)(=O)N4CCN(CCOCCOCCOCCOCCNc5cccc6c5C(=O)N(C5CCC(=O)NC5=O)C6=O)CC4)cc3)nn([C@H]3CC[C@H](O)CC3)c2n1 (stereo partly shown) [I-34] = > 50%

response.value for C[C@H](CC(F)(F)F)Nc1ncc2c(-c3ccc(CN4CCN(CCCOC5CCN(Cc6ccc7c(c6)n(C)c(=O)n7C6CCC(=O)NC6=O)CC5)CC4)cc3)cn([C@H]3CC[C@H](O)CC3)c2n1 (stereo partly shown) [I-196] (field: Dmax) = > 50%

Item: CC(c1ccc(-c2cn([C@H]3CC[C@H](O)CC3)c3nc(NCCC(F)(F)F)ncc23)cc1)N1CCN(CCCCOCCCc2ccc3c(c2)n(C)c(=O)n3C2CCC(=O)NC2=O)CC1 (stereo partly shown) [I-81] | Dmax: > 50%

Record CCC1CN(c2ccc(-c3ccnc(Nc4cc(OC)c(OC)c(OCCOCCOCCOCCOCC(=O)N[C@H](C(=O)N5C[C@H](O)C[C@H]5C(=O)NCc5ccc(-c6scnc6C)cc5)C(C)(C)C)c4)n3)cn2)CCN1 (stereo partly shown) [I-233] . Reported Dmax: > 50%
